TARGET UNDER TEST: Liver carboxylesterase 1 (Homo sapiens)
Sequence (P23141 whole entry): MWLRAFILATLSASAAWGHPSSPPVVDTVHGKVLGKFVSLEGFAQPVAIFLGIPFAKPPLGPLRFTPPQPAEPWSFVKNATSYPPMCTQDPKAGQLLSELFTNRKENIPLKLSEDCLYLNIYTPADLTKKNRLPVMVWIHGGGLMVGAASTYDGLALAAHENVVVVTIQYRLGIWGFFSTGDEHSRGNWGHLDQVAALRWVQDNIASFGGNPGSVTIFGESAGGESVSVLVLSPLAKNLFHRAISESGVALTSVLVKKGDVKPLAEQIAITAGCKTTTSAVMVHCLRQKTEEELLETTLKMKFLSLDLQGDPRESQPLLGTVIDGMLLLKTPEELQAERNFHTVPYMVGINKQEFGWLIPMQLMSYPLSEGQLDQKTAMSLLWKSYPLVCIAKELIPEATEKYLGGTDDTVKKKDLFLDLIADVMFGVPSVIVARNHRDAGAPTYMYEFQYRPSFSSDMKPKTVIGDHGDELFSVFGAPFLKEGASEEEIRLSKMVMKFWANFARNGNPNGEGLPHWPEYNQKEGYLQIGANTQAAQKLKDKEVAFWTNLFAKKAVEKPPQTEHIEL
PROTOCOL TEXT: Metabolic stability of the compound in human liver microsomes assessed as carboxylesterase-1-mediated hydrolysis by measuring half life in absence of NADPH
Type: ADME
MEASUREMENT CONTEXT: microsomes
Assign labels as follows, please: Fulfilled for t1/2 below 5 min; Not fulfilled for t1/2 equal to or exceeding 5 min.

Some entries whose results are on file:
>>> label("COC(=O)NCCCC(Cc1ccccc1)C(=O)Oc1ccc(Oc2ccc(CN(Cc3ccccc3)c3cccc(NS(C)(=O)=O)c3C)cc2)cc1 (stereo not drawn)")
"Not fulfilled"
>>> label("COC(=O)NCCCC(C)(C)C(=O)Oc1ccc(Oc2ccc(CN(Cc3ccccc3)c3cccc(NS(C)(=O)=O)c3C)cc2)cc1")
"Not fulfilled"
>>> label("COC(=O)NCCCC(C)C(=O)Oc1ccc(Oc2ccc(CN(Cc3ccccc3)c3cccc(NS(C)(=O)=O)c3C)cc2)cc1 (stereo not drawn)")
"Fulfilled"
>>> label("COC(=O)NCCCC(Cc1cn(Cc2ccccc2)nn1)C(=O)Oc1ccc(Oc2ccc(CN(Cc3ccccc3)c3cccc(NS(C)(=O)=O)c3C)cc2)cc1 (stereo not drawn)")
"Not fulfilled"
>>> label("C#CCC(CCCNC(=O)OC)C(=O)OCCOc1ccc(Oc2ccc(CN(Cc3ccccc3)c3cccc(NS(C)(=O)=O)c3C)cc2)cc1 (stereo not drawn)")
"Fulfilled"

Ask: Decide: t1/2 of COC(=O)NCCCC(C)(Cc1ccccc1)C(=O)Oc1ccc(Oc2ccc(CN(Cc3ccccc3)c3cccc(NS(C)(=O)=O)c3C)cc2)cc1 (stereo not drawn) strictly below 5 min?
Reply: Not fulfilled

Ask: In plain terms, does COC(=O)NCCCC(Cc1cn(Cc2ccccc2)nn1)C(=O)OCCOc1ccc(Oc2ccc(CN(Cc3ccccc3)c3cccc(NS(C)(=O)=O)c3C)cc2)cc1 (stereo not drawn) come in under 5 min for t1/2?
Reply: Not fulfilled

Ask: I wonder whether C#CCC(CCCNC(=O)OC)C(=O)Oc1ccc(Oc2ccc(CN(Cc3ccccc3)c3cccc(NS(C)(=O)=O)c3C)cc2)cc1 (stereo not drawn) has t1/2 below 5 min. Can you tell?
Reply: Fulfilled
